# measured.on: T1, orthogonal hCD122 receptor (hoRb), hCD122 with H133D and Y134F (human, UniProt P14784 27-550)
# T1 sequence: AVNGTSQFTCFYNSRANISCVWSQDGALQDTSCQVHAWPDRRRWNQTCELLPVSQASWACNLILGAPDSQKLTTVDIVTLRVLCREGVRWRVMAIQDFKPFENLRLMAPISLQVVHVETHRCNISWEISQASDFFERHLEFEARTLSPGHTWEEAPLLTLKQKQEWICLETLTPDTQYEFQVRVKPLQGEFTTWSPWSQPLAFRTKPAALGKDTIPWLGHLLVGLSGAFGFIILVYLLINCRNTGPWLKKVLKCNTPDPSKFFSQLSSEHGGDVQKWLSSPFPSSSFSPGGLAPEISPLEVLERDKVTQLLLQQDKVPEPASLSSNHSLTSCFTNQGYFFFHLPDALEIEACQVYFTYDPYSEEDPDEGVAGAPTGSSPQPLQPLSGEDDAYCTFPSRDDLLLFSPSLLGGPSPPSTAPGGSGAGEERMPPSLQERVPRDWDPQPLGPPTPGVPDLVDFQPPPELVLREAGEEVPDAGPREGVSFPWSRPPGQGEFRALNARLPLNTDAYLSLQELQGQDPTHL
# assay.text: cell-based or functional assay; further: reference of the scale not given here
parameter: Relative Proliferation Fold Change 3F8 1:50 (fold)

| binder | result.number |
| --- | --- |
| L85V, SQVLKA (ligand) APTSSSTKKTQLQLSQLLVLLKAILNGINNYKNPKLTRMLTFKFYMPKKATELKHLQCLEEELKPLEEVLNLAQSKNFHLRPRDVISNINVIVLELKGSETTFMCEYADETATIVEFLNRWITFCQSIISTLT | 14.3 |

[1] T113N, SQVLKA (ligand) APTSSSTKKTQLQLSQLLVLLKAILNGINNYKNPKLTRMLTFKFYMPKKATELKHLQCLEEELKPLEEVLNLAQSKNFHLRPRDLISNINVIVLELKGSETTFMCEYADETANIVEFLNRWITFCQSIISTLT
[2] L18D, SQVLKA (ligand) APTSSSTKKTQLQLSQLDVLLKAILNGINNYKNPKLTRMLTFKFYMPKKATELKHLQCLEEELKPLEEVLNLAQSKNFHLRPRDLISNINVIVLELKGSETTFMCEYADETATIVEFLNRWITFCQSIISTLT
Query: Input pair: 1 , 2 . Output: entry with lower Relative Proliferation Fold Change 3F8 1:50. Please indicate the selected item by its label.
Response: 1

Entry source: patent US20210196796A1
